# PROCEDURE SUMMARY: in vivo
# CONDITION LABEL: both, KM, mouse, in vivo, LD50, mice, intraperitoneal acute toxicity (sentence prints orogastric gavage), peanut oil solution, Bliss method
REPORTED ENDPOINT: LD50 at 14 days

Input line: Answer with the recorded LD50 at 14 days of C[C@H]1CC[C@@]2(O)C(C)(C)[C@@H]3CC[C@@]2(C)[C@H]1C3 [Patchouli Alcohol] only.
Output line: 3140 mg/kg

---

# PROCEDURE SUMMARY: in vivo
# CONDITION LABEL: both, KM, mouse, in vivo, ip, LD50 95% confidence interval upper limit, mice, intraperitoneal acute toxicity, Bliss method
REPORTED ENDPOINT: LD50 at 14 days (mg/kg)
Write it as a number; the unit mg/kg goes unstated.

Input line: Answer with the recorded LD50 at 14 days of C[C@H]1CC[C@@]2(O)C(C)(C)[C@@H]3CC[C@@]2(C)[C@H]1C3 only.
Output line: 3680
